Test system: Staphylococcus aureus
Assay: Antibacterial activity against Staphylococcus aureus MTCC 96 assessed as growth inhibition after 24 hr by agar streak dilution method
Type: functional
Conditions: MTCC 96, 24 h
assay-readout: MIC (µg/mL)
Numbers only, in µg/mL.

{"compound": "O=C(O)c1cn(C2CC2)c2cc(N3CCNCC3)c(F)cc2c1=O [CIPROFLOXACIN]", "experimental-result": 1.56}
{"compound": "CC1CC(C)CN(c2nc(-c3ccc(NCC(=O)Nc4ccc(F)cc4)cc3)nc(N3CC(C)CC(C)C3)n2)C1 (stereo not drawn)", "experimental-result": 12.5}

Next item in the queue.
So, CC(=O)Nc1ccc(NC(=O)CNc2ccc(-c3nc(N4CC(C)CC(C)C4)nc(N4CC(C)CC(C)C4)n3)cc2)cc1 (stereo not drawn) ? Its MIC was 50

Sourced from ChEMBL document CHEMBL3046161
